src = the supplement of paper PMC10307832

Each record here notes measured relative viability.
Test system: NCI-H2228
assayText: relative viability (nuclei count vs DMSO), 5 days (fraction); higher = more cells survive
testParameters: first compound 0.253 µM
// keep it numeric: no unit symbol after the value

These recorded examples may help you get a feel for the data.
- compound: "Nc1cccc2c1CN(C1CCC(=O)NC1=O)C2=O (stereo not given) [Lenalidomide] + O=C(CCCCCCC(=O)Nc1ccccc1)NO [Vorinostat] (partner 1 µM)"
  resultType: "relative viability"
  observedMeasurement: 0.451
- compound: "Nc1cccc2c1CN(C1CCC(=O)NC1=O)C2=O (stereo not given) [Lenalidomide] + Cc1nc(NC(=O)N2CCC[C@H]2C(N)=O)sc1-c1ccnc(C(C)(C)C(F)(F)F)c1 [Alpelisib] (partner 2 µM)"
  resultType: "relative viability"
  observedMeasurement: 0.851
- compound: "Nc1cccc2c1CN(C1CCC(=O)NC1=O)C2=O (stereo not given) [Lenalidomide] + Cc1cc(Nc2cc(N3CCN(C)CC3)nc(Sc3ccc(NC(=O)C4CC4)cc3)n2)n[nH]1 [Tozasertib] (partner 0.1 µM)"
  resultType: "relative viability"
  observedMeasurement: 0.288
- compound: "Nc1cccc2c1CN(C1CCC(=O)NC1=O)C2=O (stereo not given) [Lenalidomide] + CC(=O)c1c(C)c2cnc(Nc3ccc(N4CCNCC4)cn3)nc2n(C2CCCC2)c1=O [Palbociclib] (partner 0.5 µM)"
  resultType: "relative viability"
  observedMeasurement: 1.05

Attention now shifts to the item below.
Consider the compound Nc1cccc2c1CN(C1CCC(=O)NC1=O)C2=O (stereo not given) [Lenalidomide] + CC1(C)CCC(c2ccc(Cl)cc2)=C(CN2CCN(c3ccc(C(=O)NS(=O)(=O)c4ccc(N[C@H](CCN5CCOCC5)CSc5ccccc5)c(S(=O)(=O)C(F)(F)F)c4)cc3)CC2)C1 [Navitoclax] (partner 0.5 µM) and give its measured relative viability.
0.821

###

Each record here notes measured relative viability.
System: BEN
assayText: relative viability (nuclei count vs DMSO), 5 days (fraction); higher = more cells survive
testParameters: first compound 8 µM
// keep it numeric: no unit symbol after the value

These recorded examples may help you get a feel for the data.
- compound: "Nc1cccc2c1CN(C1CCC(=O)NC1=O)C2=O (configuration not stated) [Lenalidomide] + CC(=O)c1c(C)c2cnc(Nc3ccc(N4CCNCC4)cn3)nc2n(C2CCCC2)c1=O [Palbociclib] (partner 0.5 µM)"
  relative viability: 0.556
- compound: "Nc1cccc2c1CN(C1CCC(=O)NC1=O)C2=O (configuration not stated) [Lenalidomide] + O=C(CCCCCCC(=O)Nc1ccccc1)NO [Vorinostat] (partner 1 µM)"
  relative viability: 0.545
- compound: "Nc1cccc2c1CN(C1CCC(=O)NC1=O)C2=O (configuration not stated) [Lenalidomide] + Nc1nc2[nH]cc(CCc3ccc(C(=O)N[C@@H](CCC(=O)O)C(=O)O)cc3)c2c(=O)[nH]1 [Pemetrexed] (partner 0.2 µM)"
  relative viability: 0.673
- compound: "Nc1cccc2c1CN(C1CCC(=O)NC1=O)C2=O (configuration not stated) [Lenalidomide] + Cc1cc(Nc2cc(N3CCN(C)CC3)nc(Sc3ccc(NC(=O)C4CC4)cc3)n2)n[nH]1 [Tozasertib] (partner 0.1 µM)"
  relative viability: 0.57
- compound: "Nc1cccc2c1CN(C1CCC(=O)NC1=O)C2=O (configuration not stated) [Lenalidomide] + NC(=O)Nc1cc(-c2cccc(F)c2)sc1C(=O)N[C@H]1CCCNC1 [AZD7762] (partner 0.2 µM)"
  relative viability: 0.563

Consider the compound Nc1cccc2c1CN(C1CCC(=O)NC1=O)C2=O (configuration not stated) [Lenalidomide] + CCNC(=O)c1noc(-c2cc(C(C)C)c(O)cc2O)c1-c1ccc(CN2CCOCC2)cc1 [Luminespib] (partner 0.01 µM) and give its measured relative viability.
0.246

Okay, and Nc1cccc2c1CN(C1CCC(=O)NC1=O)C2=O (configuration not stated) [Lenalidomide] + CC1(C)CCC(c2ccc(Cl)cc2)=C(CN2CCN(c3ccc(C(=O)NS(=O)(=O)c4ccc(N[C@H](CCN5CCOCC5)CSc5ccccc5)c(S(=O)(=O)C(F)(F)F)c4)cc3)CC2)C1 [Navitoclax] (partner 0.5 µM) ?
0.0611
